Tested on: CRL-7250
Run description: Cytotoxic Profiling of Annotated Libraries Using Quantitative High-Throughput Screening (AID 1296008); note: % is set by controls: 0 for no effect and ±100 for the full control effect; nearly all actives have a fitted effect of over 60% in size
Study conditions: Five cell lines viability, CellTiter-Glo ATP luminescence, 48-72 h; active compounds read low
Inconclusive results are not listed.
Metric name: max response (%)

O=C(Nc1ccccc1-c1ccc(Cl)cc1)c1cccnc1Cl; -3.67
CCCCCCCCCC(CC)c1ccc(S(=O)(=O)O)cc1 (stereo not given); -1.12
O=C(N[C@@H](COc1ccc2[nH]c(=O)[nH]c2c1)c1ccccc1)c1cccn(Cc2ccc(F)c(F)c2)c1=O; -47.2
COCC1(CO)C(=O)C2CCN1CC2 (stereo not given); -4.01
C=CC(=O)NCNC(=O)C=C; -10.1
C[C@H]1CCCC=CC2C[C@H](O)C[C@@H]2[C@H](O)C=CC(=O)O1 (stereo not given in full); -95.9
C[C@@H]1[C@H](O)[C@@H](C)C=CC=CCCC=CC=CC=CC=C[C@H](O[C@H]2O[C@@H](C)[C@H](O)[C@@H](N)[C@@H]2O)CC2O[C@](O)(C[C@@H](O)[C@H](O)CC[C@@H](O)C[C@@H](O)C[C@@H](O)CC(=O)O[C@H]1C)C[C@H](O)[C@H]2C(=O)O; 4.08
Nc1ccc(Cl)cc1N; -5.38
COC(=O)c1cncn1C(C)c1ccccc1 (stereo not given); -11.1
Fc1cc(Br)ccc1CBr; -5.31

----------
Run description: Quantitative High-Throughput drug screen in 47 multiple myeloma cell lines against the NCATS MIPE library collection: OPM2_DSMZ cell viability assay (AID 1919872); note: nearly all actives have a fitted effect of over 30% in size
Study conditions: OPM2 myeloma viability, CellTiter-Glo ATP luminescence, 48 h; series mostly up to 45.8 µM
From the text: PI: Beverly A. Mock Ph.D. Laboratory of Cancer Biology and Genetics, Center for Cancer Research, National Cancer Institute, National Institute of Health, Bethesda, Maryland […] 5; Detector; 425V; Luminescence; Viewlux PerkinElmer. […] 1. […] Briefly, the corresponding myeloma cell lines were screened in 1,536-well plates with 500 cells, 5-uL per well for inhibition of cell viability (assessed by measuring ATP levels with CellTiterGlo). […]
Results filed as inconclusive are left out. The source made the active and inactive calls. The call rests on the fitted dose curve; in most records, active means well fitted cell-killing curve with a large enough effect; inconclusive means small, poorly fitted or top-dose-only effect, or effect the other way; inactive means no such curve, though single readings can be large or run the other way.
Outcome codes: TRUE for active, FALSE for inactive

C[C@]12CC[C@H](O)CC1=CC[C@H]1[C@H]3CCC(=O)[C@@]3(C)CC[C@@H]12; FALSE
Cc1[nH]nc2ccc(-c3cncc(OC[C@@H](N)Cc4c[nH]c5ccccc45)c3)cc12; TRUE
CN1[C@H]2CC(O)C[C@H]1[C@H]1O[C@H]12 (stereo not given in full); TRUE
O=c1[nH]c2ccc(Cl)cc2c(N[C@@H]2CN3CCC2CC3)c1-c1nc2ccccc2[nH]1; TRUE
O=[N+]([O-])c1ncc[nH]1; FALSE

----------
Run description: Quantitative High-Throughput drug screen in 47 multiple myeloma cell lines against the NCATS MIPE library collection: KMM1_JCRB cell viability assay (AID 1918960); note: nearly all actives have a fitted effect of over 30% in size
Study conditions: KMM1 myeloma viability, CellTiter-Glo ATP luminescence, 48 h; series mostly up to 45.8 µM
Records with an inconclusive call do not appear. Activity calls are given as the source filed them. Calls come from the whole dose curve; as a rule, active = well fitted cell-killing curve with a large enough effect; inconclusive = small, poorly fitted or top-dose-only effect, or effect the other way; inactive = no such curve, though single readings can be large or run the other way.
Possible outcomes: active, inactive

CCCC[N+]1(C)[C@H]2CC(OC(=O)[C@H](CO)c3ccccc3)C[C@H]1[C@H]1O[C@H]12 (some centres not stated); inactive
CC(C)[C@]12O[C@@H]1[C@@H]1O[C@]13[C@]1(O[C@H]1C[C@@H]1C4=C(CC[C@@]13C)C(=O)OC4)[C@H]2O; inactive
C[C@]12CC[C@@H]3[C@@H](CCC4=CC(=O)CC[C@@H]43)[C@@H]1CC[C@@H]2OC(=O)CCc1ccccc1; inactive
NC1=NC(=O)N2CC12 (configuration not stated); active
CC(C)(O)C=CC(=O)[C@](C)(O)[C@H]1[C@H](O)C[C@]2(C)[C@@H]3CC=C4[C@@H](C=C(O)C(=O)C4(C)C)[C@]3(C)C(=O)C[C@@]12C; active
C[C@]12CCC(=O)C(O)=C1CC[C@@H]1[C@H]3CCC(=O)[C@@]3(C)CC[C@@H]12; inactive
O=S(=O)(F)Cc1ccccc1; inactive
